The reader will find reported IC50 values listed item by item below.
target: PI3K delta (Homo sapiens (Human)); assay: Luciferase-coupled chemiluminescence kinase assay (KinaseGlo, ATP consumption)

Examples with their reported IC50 follow.
# Molecule, IC50
records = [
    ("Cc1cccc2cc(Cn3cnc4c(N)ncnc43)c(N3CCCC3)nc12 [Compound 171]", "50 to 250 nM"),
    ("Cc1cccc2cc(CNC(=O)c3nccnc3N)c(N(C)CCN(C)C(=O)CN)nc12 [Compound 115]", "50 to 250 nM"),
    ("Cc1ccccc1-n1c(CCN)nc2cccc(C)c2c1=O [Compound 157]", "500 to 1500 nM"),
]

// COc1ccc(OC(C)c2cc3cccc(C)c3nc2-c2ccccc2Cl)cc1 (stereo not drawn) [Compound 17] : IC50 value = 500 to 1500 nM

// Nc1nccnc1C(=O)NCc1nc2ccccc2cc1-c1cscn1 [Compound 91] : IC50 value = 500 to 1500 nM

###

Target: PI3K delta (Homo sapiens (Human))
Test: Luciferase-coupled chemiluminescence kinase assay (KinaseGlo, ATP consumption)
Description: Kinase activity and compound inhibition were investigated using one or more of the assay formats described below. The ATP concentrations used in the various assays were approximately equal to or less than the KM for each of the respective kinases. […] Kinase activity is measured as the percent of ATP consumed following the kinase reaction using luciferase-luciferin-coupled chemiluminescence. […]
Metric: IC50

// Cc1cccc2cc(CNc3ncnc4[nH]cnc34)c(N3CCNCC3)nc12 : IC50 value = < 50 nM

// Cc1cccc2cc(Cn3cnc4c(N)ncnc43)c(N3CC4CC3CN4C)nc12 (centres unmarked) : IC50 value = 500 to 1500 nM

// Cc1cccc2cc(CNC(=O)c3nccnc3N)c(N(C)CCN(C)C(=O)Cn3cccn3)nc12 : IC50 value = < 50 nM

// Cc1cccc2cc(CNC(=O)c3nccnc3N)c(-c3ccccc3Cl)nc12 : IC50 value = 50 to 250 nM

// Cc1cccc2cc(CNC(=O)c3nccnc3N)c(N(C)C3CCN(C)C3)nc12 (centres unmarked) : IC50 value = 50 to 250 nM

###

target: PI3K delta (Homo sapiens (Human), UniProt O00329); experiment: Luciferase-coupled chemiluminescence kinase assay (KinaseGlo, ATP consumption)
Sequence (O00329 whole entry): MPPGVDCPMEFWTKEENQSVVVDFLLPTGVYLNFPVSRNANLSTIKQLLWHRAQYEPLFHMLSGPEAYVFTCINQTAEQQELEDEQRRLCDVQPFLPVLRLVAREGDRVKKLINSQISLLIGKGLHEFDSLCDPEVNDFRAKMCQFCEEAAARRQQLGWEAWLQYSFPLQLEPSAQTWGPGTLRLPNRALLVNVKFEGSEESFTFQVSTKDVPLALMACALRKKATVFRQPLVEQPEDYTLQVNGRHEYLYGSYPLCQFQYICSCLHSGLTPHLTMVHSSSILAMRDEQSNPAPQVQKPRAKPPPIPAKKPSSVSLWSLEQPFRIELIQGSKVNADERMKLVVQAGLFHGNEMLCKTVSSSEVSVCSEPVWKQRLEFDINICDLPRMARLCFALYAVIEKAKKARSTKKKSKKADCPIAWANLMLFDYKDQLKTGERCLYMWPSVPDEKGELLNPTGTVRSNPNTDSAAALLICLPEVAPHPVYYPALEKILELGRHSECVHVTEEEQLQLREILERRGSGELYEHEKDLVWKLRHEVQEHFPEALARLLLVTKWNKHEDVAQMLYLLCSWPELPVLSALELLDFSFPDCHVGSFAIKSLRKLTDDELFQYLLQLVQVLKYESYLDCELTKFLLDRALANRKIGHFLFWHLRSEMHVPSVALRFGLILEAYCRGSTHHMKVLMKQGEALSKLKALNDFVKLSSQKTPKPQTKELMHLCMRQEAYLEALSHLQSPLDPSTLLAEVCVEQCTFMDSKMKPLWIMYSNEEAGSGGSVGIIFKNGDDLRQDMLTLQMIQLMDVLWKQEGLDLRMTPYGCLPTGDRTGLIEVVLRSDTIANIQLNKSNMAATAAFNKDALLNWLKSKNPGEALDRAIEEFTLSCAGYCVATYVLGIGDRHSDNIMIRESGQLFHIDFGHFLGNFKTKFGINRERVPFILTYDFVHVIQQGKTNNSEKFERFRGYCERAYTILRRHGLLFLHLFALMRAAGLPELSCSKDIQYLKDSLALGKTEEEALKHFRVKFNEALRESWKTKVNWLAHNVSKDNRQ
Sequence (P27986 whole entry partner): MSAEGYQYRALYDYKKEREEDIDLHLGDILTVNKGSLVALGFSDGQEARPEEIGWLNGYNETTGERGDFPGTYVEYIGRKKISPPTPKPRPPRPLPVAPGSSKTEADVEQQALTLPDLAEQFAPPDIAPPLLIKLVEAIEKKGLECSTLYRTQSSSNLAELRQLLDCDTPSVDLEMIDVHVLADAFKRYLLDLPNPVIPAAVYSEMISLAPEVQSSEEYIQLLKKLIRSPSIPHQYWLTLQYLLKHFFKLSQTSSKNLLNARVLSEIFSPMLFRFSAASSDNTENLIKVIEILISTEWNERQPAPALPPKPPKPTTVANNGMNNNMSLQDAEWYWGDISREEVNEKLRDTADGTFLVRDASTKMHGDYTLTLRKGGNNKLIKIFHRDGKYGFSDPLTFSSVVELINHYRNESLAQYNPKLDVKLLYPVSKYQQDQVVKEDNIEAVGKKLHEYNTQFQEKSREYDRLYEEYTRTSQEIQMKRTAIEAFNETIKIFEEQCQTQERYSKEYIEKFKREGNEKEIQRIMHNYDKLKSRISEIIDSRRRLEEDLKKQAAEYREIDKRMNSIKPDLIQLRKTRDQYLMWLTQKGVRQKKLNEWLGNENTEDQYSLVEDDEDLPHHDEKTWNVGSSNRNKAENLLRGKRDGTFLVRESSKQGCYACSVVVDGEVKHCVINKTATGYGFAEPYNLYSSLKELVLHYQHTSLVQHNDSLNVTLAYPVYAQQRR
pIC50: −log10 of the molar value.
The reader will find reported pIC50 values listed item by item below.

Examples with their reported pIC50 follow.
# Molecule, Metric, Result
measured = [
    ("Cc1cccc2cc(CNC(=O)c3nccnc3N)c(N(C)CCN(C)Cc3cccnc3)nc12", "pIC50", "> 7.30"),
    ("Cc1cccc2cc(CNc3ncnc4[nH]cnc34)c(N3CCN4CCCCC4C3)nc12 (stereo not shown)", "pIC50", "> 7.30"),
    ("Cc1ccccc1-c1c(Cn2cnc3ncnc(N)c32)nc2ccccc2c1C", "pIC50", "5.82 to 6.30"),
]

# context switch: different molecule, same pIC50
// Cc1cccc2cc(CSc3ncnc4[nH]cnc34)c(N(C)CC3CCN(C)CC3)nc12 : pIC50 value = 6.60 to 7.30

###

molecular target: PI3K delta (Homo sapiens (Human)); test: Luciferase-coupled chemiluminescence kinase assay (KinaseGlo, ATP consumption)
pIC50: −log10 of the molar value.
The reader will find reported pIC50 values listed item by item below.

Examples with their reported pIC50 follow.
# Molecule, pIC50
rows = [
    ("Cc1cccc2cc(CNc3ncnc4[nH]cnc34)c(N3CCCCC3)nc12", "6.60 to 7.30"),
    ("Cc1cccc2cc(CNc3ncnc4[nH]cnc34)c(N3CCCN(C)CC3)nc12", "> 7.30"),
    ("Cc1cccc2cc(CNC(=O)c3nccnc3N)c(N3CCCNCC3)nc12", "6.30 to 6.60"),
]

Reading of pIC50 for Cc1nc(C)n(CC(=O)N(C)CCN(C)c2nc3c(C)cccc3cc2CNC(=O)c2nccnc2N)n1 with PI3K delta (Homo sapiens (Human)): > 7.30

Reading of pIC50 for Cc1cccc2cc(CNC(=O)c3nccnc3N)c(N(C)CCN(C)CC(=O)N(C)C)nc12 with PI3K delta (Homo sapiens (Human)): > 7.30

Reading of pIC50 for Cc1cccc2cc(COc3ccc4c(c3)OCO4)c(-c3ccccc3Cl)nc12 with PI3K delta (Homo sapiens (Human)): 5.82 to 6.30

Reading of pIC50 for COc1ccc(OCc2cc3cccc(C)c3nc2-c2ccccc2Cl)cc1 with PI3K delta (Homo sapiens (Human)): 5.82 to 6.30

Reading of pIC50 for Cc1cccc2cc(CNC(=O)c3nccnc3N)c(N3CCCN(C(=O)Cn4nccn4)CC3)nc12 with PI3K delta (Homo sapiens (Human)): 5.82 to 6.30

Reading of pIC50 for Cc1cccc2cc(CNC(=O)c3nccnc3N)c(N3CCCN(C(=O)Cn4cnc5ccccc54)CC3)nc12 with PI3K delta (Homo sapiens (Human)): 5.82 to 6.30

Reading of pIC50 for Cc1cccc2cc(CNC(=O)c3nccnc3N)c(N(C)Cc3cccnc3)nc12 with PI3K delta (Homo sapiens (Human)): 6.60 to 7.30

Reading of pIC50 for COCCN(C)c1nc2c(C)cccc2cc1CNc1ncnc2[nH]cnc12 with PI3K delta (Homo sapiens (Human)): > 7.30

Reading of pIC50 for Cc1cccc2cc(CNC(=O)c3nccnc3N)c(N(C)CCN(C)C(=O)CN3CCCC3)nc12 with PI3K delta (Homo sapiens (Human)): 6.60 to 7.30

###

biological target: PI3K delta (Homo sapiens (Human), UniProt O00329); test: Luciferase-coupled chemiluminescence kinase assay (KinaseGlo, ATP consumption); type: biochemical
pIC50: −log10 of the molar value.
Metric: pIC50

Examples with their reported pIC50 follow.
# Compound, Assayed target, pIC50
rows = [
    ("Cc1ccccc1-c1cc2ccccc2nc1CNC(=O)c1cncnc1N", "PI3K delta (Homo sapiens (Human), UniProt O00329)", "5.82 to 6.30"),
    ("Cc1ccccc1-c1cc2ccccc2nc1Cn1cnc2c(N)ncnc21", "PI3K delta (Homo sapiens (Human), UniProt O00329)", "5.82 to 6.30"),
    ("Cc1ccccc1-c1nc2c(C)cccc2cc1CSc1ncnc2[nH]cnc12", "PI3K delta (Homo sapiens (Human), UniProt O00329)", "6.60 to 7.30"),
]

// Cc1cccc2cc(CNC(=O)c3nccnc3N)c(N3CCCN(Cc4cccnc4)CC3)nc12 : pIC50 value = 6.30 to 6.60

// Cc1cccc2cc(Cn3cnc4c(N)ncnc43)c(N(C)CCN(C)C(=O)Cn3cccn3)nc12 : pIC50 value = > 7.30

// Cc1cccc2cc(Cn3cnc4c(N)ncnc43)c(NS(C)(=O)=O)nc12 : pIC50 value = 5.82 to 6.30

// Cc1cccc2cc(Cn3cnc4c(N)ncnc43)c(N3CCc4ccccc4C3)nc12 : pIC50 value = 5.82 to 6.30

// Cc1cccc2cc(Cn3cnc4c(N)ncnc43)c(N(C)CC3CCCCN3C)nc12 (centres unmarked) : pIC50 value = > 7.30

###

Target: PI3K delta (Homo sapiens (Human), UniProt O00329)
Assay: Luciferase-coupled chemiluminescence kinase assay (KinaseGlo, ATP consumption)
Procedure: Kinase activity and compound inhibition were investigated using one or more of the assay formats described below. The ATP concentrations used in the various assays were approximately equal to or less than the KM for each of the respective kinases. […] Kinase activity is measured as the percent of ATP consumed following the kinase reaction using luciferase-luciferin-coupled chemiluminescence. […]
The reader will find reported IC50 values listed item by item below.

# Smiles input, Metric, Result
rows = [
    ("Cc1cccc2cc(CNC(=O)c3nccnc3N)c(NCCO)nc12", "IC50", "500 to 1500 nM"),
    ("Cc1cccc2cc(CNC(=O)c3nccnc3N)c(N(C)CCN(C)C(=O)Cn3ccnn3)nc12", "IC50", "< 50 nM"),
    ("COCCNc1nc2c(C)cccc2cc1Cn1cnc2c(N)ncnc21", "IC50", "500 to 1500 nM"),
    ("CN(C)Cc1ccccc1-c1cc2ccccc2nc1CNC(=O)c1nccnc1N", "IC50", "50 to 250 nM"),
    ("COCCN(C)c1nc2c(C)cccc2cc1CNC(=O)c1nccnc1N", "IC50", "500 to 1500 nM"),
]

// CNCCN(C)c1nc2c(C)cccc2cc1CNc1ncnc2[nH]cnc12 : IC50 value = < 50 nM

// COc1cccc(CNCc2cc3cccc(C)c3nc2-c2ccccc2Cl)c1 : IC50 value = 500 to 1500 nM

// COCCOc1cccc(-c2nc3c(C)cccc3cc2Cn2cnc3c(N)ncnc32)c1 : IC50 value = 250 to 500 nM

// Nc1nccnc1C(=O)NCc1nc2ccccc2cc1-c1cccc(CN2CCOCC2)c1 : IC50 value = 500 to 1500 nM

###

target: PI3K delta (Homo sapiens (Human)); assay: Luciferase-coupled chemiluminescence kinase assay (KinaseGlo, ATP consumption)
Metric: IC50

// Cc1ccccc1-c1cc2ccccc2nc1CNC(=O)c1nccnc1N [Compound 142] : IC50 value = 500 to 1500 nM

// Cc1cccc2cc(CNc3ncnc4[nH]cnc34)c(-c3ccccc3Cl)nc12 [Compound 154] : IC50 value = < 50 nM

// CC(=O)N1CCN(c2nc3c(C)cccc3cc2CNC(=O)c2nccnc2N)CC1 [Compound 124] : IC50 value = 250 to 500 nM

// Cc1cccc2cc(CNC(=O)c3nccnc3N)c(N3CCCN(C(=O)Cn4ccnn4)CC3)nc12 [Compound 60] : IC50 value = 250 to 500 nM

// Cc1cccc2cc(Cn3cnc4c(N)ncnc43)c(N(C)CCN(C)C(=O)Cn3ccnn3)nc12 [Compound 34] : IC50 value = < 50 nM

// Cc1cccc(-c2nc3c(C)cccc3cc2Cn2cnc3c(N)ncnc32)c1 [Compound 183] : IC50 value = 250 to 500 nM

// Cc1cccc2cc(CNC(=O)c3nccnc3N)c(NCCc3cccnc3)nc12 [Compound 97] : IC50 value = 500 to 1500 nM

// Cc1cccc2cc(CNC(=O)c3nccnc3N)c(N3CCCN(Cc4cncn4C)CC3)nc12 [Compound 63] : IC50 value = 50 to 250 nM

// Cc1ccccc1-n1c(CNC(=O)c2nccnc2N)nc2cccc(C)c2c1=O [Compound 175] : IC50 value = < 50 nM
